For each entry below, report its pIC50 value.
biological target: HBV core protein (UniProt P03146); format: biochemical; details: read-out: Assembly Activity (IC50); BODIPY-FL labelled core protein, assembly started with NaCl, read after 6 min
Sequence (P03146 whole entry, looked up): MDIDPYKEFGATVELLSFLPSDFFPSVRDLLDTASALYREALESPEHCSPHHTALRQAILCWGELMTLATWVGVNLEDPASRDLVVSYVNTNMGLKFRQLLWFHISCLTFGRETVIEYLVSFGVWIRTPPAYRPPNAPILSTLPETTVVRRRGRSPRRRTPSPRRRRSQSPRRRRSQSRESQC
pIC50: −log10 of the molar value.

Incoming: Please tell me: pIC50 of CC(O)c1cccc2[nH]c(C(=O)N3CCc4nc(N)sc4C3)cc12 (stereo not shown) [Example 10] , system HBV core protein (UniProt P03146)?
Outgoing: > 4.00

// each listed molecule needs a value for pIC50
1. CC(C)(CO)Nc1nc2c(s1)CN(C(=O)c1cc3ccccc3[nH]1)CC2 [Example 68]
2. O=C(c1cc2c(Cl)cccc2[nH]1)N1CCc2nc(NCC3(CO)CC3)sc2C1 [Example 63]
3. COCC1(C(=O)Nc2nc3c(s2)CN(C(=O)c2cc4ccccc4[nH]2)CC3)CC1 [Example 330]

Outgoing:
["> 5.30", "> 5.30", "5.00 to 5.30"]

====

target: UniProtKB P03146; type: biochemical; details: read-out: Assembly Activity (IC50); BODIPY-FL labelled core protein, assembly started with NaCl, read after 6 min
Task for the reader: assign each of the following compounds its reported IC50.

In the examples that follow, each entry is paired with its recorded IC50.
Incoming: Dear colleague, I am looking for the recorded IC50 of the following compound: O=C(c1cc2ccccc2[nH]1)N1CCc2nc(CNCc3ccccc3)sc2C1
Outgoing: < 100 µM

Incoming: Please look up its IC50: CC(O)c1cc(F)cc2[nH]c(C(=O)N3CCc4nc(N)sc4C3)cc12 (stereo not drawn)
Outgoing: 5 to 10 µM

Incoming: Consider the compound shown here: O=C(c1cc2ccccc2[nH]1)N1CCc2nc(NCCCN3CCOCC3)sc2C1 What is its recorded IC50?
Outgoing: < 5 µM

Incoming: What measured IC50 goes with O=C(c1cc2ccccc2[nH]1)N1CCc2nc(NCC3(CO)CCOCC3)sc2C1 ?
Outgoing: < 5 µM

Incoming: Fill in the blank: the reported IC50 of O=C(c1cc2ccccc2[nH]1)N1CCc2nc(NCC3(O)CCOC3)sc2C1 (stereo not drawn) is ____.
Outgoing: < 5 µM

Incoming: Requested field: IC50. Item: O=C(c1cc2ccccc2[nH]1)N1CCc2nc(NC3CCC(O)CC3)sc2C1 (stereo not drawn)
Outgoing: < 5 µM

Incoming: Which value of IC50 has been reported for CC1(Nc2nc3c(s2)CN(C(=O)c2cc4ccccc4[nH]2)CC3)CCOCC1 in the records?
Outgoing: < 5 µM

Incoming: Quick one: IC50 for CS(=O)(=O)Nc1nc2c(s1)CN(C(=O)c1cc3ccccc3[nH]1)CC2 ?
Outgoing: < 100 µM

Query compound follows.
Incoming: Given the compound Cc1nc2c(s1)CN(C(=O)c1cc3c(Cl)cc(F)cc3[nH]1)CC2 , what is its reported IC50?
Outgoing: < 5 µM

====

molecular target: HBV core protein (UniProt P03146); type: biochemical; settings: read-out: Assembly Activity (IC50); BODIPY-FL labelled core protein, assembly started with NaCl, read after 6 min
pIC50: −log10 of the molar value.
Please go through the items and note down their pIC50.

Sample answers from the record:
Incoming: Give the reported pIC50 for O=C(c1cc2c(Cl)cc(F)cc2[nH]1)N1CCc2nc(NCC3(CO)CC3)sc2C1 (system: HBV core protein (UniProt P03146)).
Outgoing: > 5.30

Incoming: Request body: readout pIC50, system HBV core protein (UniProt P03146), query Nc1nc2c(s1)CN(C(=O)c1cc3c(F)cc(F)c(F)c3[nH]1)CC2 . Return the value.
Outgoing: > 5.30

Incoming: Recorded pIC50 for Nc1nc2c(s1)CN(C(=O)c1cc3c(F)c(F)ccc3[nH]1)CC2 with HBV core protein (UniProt P03146), please?
Outgoing: > 5.30

Incoming: Record lookup: for HBV core protein (UniProt P03146), what pIC50 belongs to O=C(c1cc2ccccc2[nH]1)N1CCc2nc(NC3(CO)CCC3)sc2C1 ?
Outgoing: > 5.30

Incoming: Any idea what pIC50 came out for CC(CO)CNc1nc2c(s1)CN(C(=O)c1cc3ccccc3[nH]1)CC2 (centres unmarked) on HBV core protein (UniProt P03146)?
Outgoing: > 5.30

Incoming: Lab note: need pIC50 for CC1(C)CC1C(=O)Nc1nc2c(s1)CN(C(=O)c1cc3ccccc3[nH]1)CC2 (centres unmarked) on HBV core protein (UniProt P03146), anyone have it?
Outgoing: 5.00 to 5.30

Incoming: Write down the reported pIC50 of CCc1cccc2[nH]c(C(=O)N3CCc4nc(NCC5(CO)CC5)sc4C3)cc12 , test system: HBV core protein (UniProt P03146).
Outgoing: > 5.30

Incoming: Notebook entry, HBV core protein (UniProt P03146) assay: pIC50 of O=C1CCC(CNc2nc3c(s2)CN(C(=O)c2cc4ccccc4[nH]2)CC3)N1 (centres unmarked) = ?
Outgoing: > 5.30

Give pIC50 for all molecules that follow.
1. CC(O)c1cccc2[nH]c(C(=O)N3CCc4nc(NCC5CCOC5)sc4C3)cc12 (centres unmarked)
2. COC1(CNc2nc3c(s2)CN(C(=O)c2cc4ccccc4[nH]2)CC3)CCC1

Outgoing:
1. > 4.00
2. > 5.30
